- studySystem: A-II receptor (Bos taurus, UniProt P25104)
- Construct: An A-II receptor was prepared from the membrane fraction of bovine adrenal cortex; from tissue; host or cells: bovine adrenal cortex, membrane fraction
- Sequence (P25104 whole entry): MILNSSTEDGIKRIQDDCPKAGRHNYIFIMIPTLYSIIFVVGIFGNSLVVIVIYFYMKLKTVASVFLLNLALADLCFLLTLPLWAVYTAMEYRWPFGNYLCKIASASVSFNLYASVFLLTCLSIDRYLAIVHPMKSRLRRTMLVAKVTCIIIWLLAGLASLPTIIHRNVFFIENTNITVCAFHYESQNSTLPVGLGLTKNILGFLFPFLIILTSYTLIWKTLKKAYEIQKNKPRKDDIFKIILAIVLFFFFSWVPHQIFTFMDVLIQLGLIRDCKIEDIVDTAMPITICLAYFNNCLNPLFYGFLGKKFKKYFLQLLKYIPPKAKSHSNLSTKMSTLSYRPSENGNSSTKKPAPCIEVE
- runDescription: Inhibition of binding of angiotensin-II to angiotensin receptor (radioreceptor assay, 125I-A-II)
- Design: species or system bovine (membrane fraction of bovine adrenal cortex)
- statedConditions: 1 × 10^-6 M; bovine adrenal cortex membrane; 125I-A-II; 1 h room temperature; read-out: Radioreceptor assay, inhibition of A-II binding, 1 × 10^-6 M
testReadout: inhibition at 1 µM (%)

Sample answers from the record:
>  <molecule>
CCCCc1nc2cccc(C(=O)OC(C)OC(=O)OC3CCCCC3)c2n1Cc1ccc(-c2ccccc2-c2nn[nH]n2)cc1 (centres unmarked) [Working Example 37]

>  <studySystem>
A-II receptor (Bos taurus, UniProt P25104)

>  <unitDescriptor>
%

>  <valueReported>
65

$$$$
>  <molecule>
CCCc1nc2cccc(C(=O)O)c2n1Cc1ccc(-c2ccccc2-c2nn[nH]n2)cc1 [Working Example 7]

>  <studySystem>
A-II receptor (Bos taurus, UniProt P25104)

>  <unitDescriptor>
%

>  <valueReported>
79

$$$$
>  <molecule>
CCc1nc2cccc(C(=O)O)c2n1Cc1ccc(-c2ccccc2-c2nn[nH]n2)cc1 [Working Example 27]

>  <studySystem>
A-II receptor (Bos taurus, UniProt P25104)

>  <unitDescriptor>
%

>  <valueReported>
91

$$$$
>  <molecule>
CCCCc1nc2cccc(C(=O)OC)c2n1Cc1ccc(-c2ccccc2-c2nnn[nH]2)cc1 [Working Example 34]

>  <studySystem>
A-II receptor (Bos taurus, UniProt P25104)

>  <unitDescriptor>
%

>  <valueReported>
66

$$$$
>  <molecule>
CCCCc1nc2ccc(Cl)cc2n1Cc1ccc(-c2ccccc2-c2nn[nH]n2)cc1 [compound 21, reference compound]

>  <studySystem>
A-II receptor (Bos taurus, UniProt P25104)

>  <unitDescriptor>
%

>  <valueReported>
22

$$$$

a = CCCCc1nc2ccccc2n1Cc1ccc(-c2ccccc2-c2nnn[nH]2)cc1 [Reference Example 17, reference compound]
b = CCCCc1nc2cccc(C(=O)O)c2n1Cc1ccc(-c2ccccc2-c2nnn[nH]2)cc1 [Working Example 1]
Qu. Given a and given b , which shows the smaller recorded inhibition at 1 µM? Let me know the label of the one you choose.
Ans. a
(a: 52%, b: 78%)

I = CCCCc1nc2cccc(C(=O)OCC)c2n1Cc1ccc(-c2ccccc2-c2nnn[nH]2)cc1 [Working Example 14]
II = CCCCc1nc2ccc(C(=O)OC)cc2n1Cc1ccc(-c2ccccc2-c2nnn[nH]2)cc1 [compound 49, reference compound]
III = COCc1nc2cccc(C(=O)O)c2n1Cc1ccc(-c2ccccc2-c2nnn[nH]2)cc1 [Working Example 49]
IV = CCCCc1nc2c(C(=O)OC)cccc2n1Cc1ccc(-c2ccccc2-c2nn[nH]n2)cc1 [Reference Example 29, reference compound]
Qu. Would you mind ranking these molecules by ascending inhibition at 1 µM? Please, when replying, give the labels in the order that was requested.
Ans. IV, III, I, II
(IV: 6%, III: 35%, I: 50%, II: 77%)

1 = CCCCc1nc2cccc(CO)c2n1Cc1ccc(-c2ccccc2-c2nnn[nH]2)cc1 [Working Example 16]
2 = CCCCc1nc2cc(C)cc(C(=O)OC)c2n1Cc1ccc(-c2ccccc2-c2nn[nH]n2)cc1 [Working Example 9]
Qu. Consider 1 and 2 . Which of these has its inhibition at 1 µM at a higher number? Let me know the label of the one you choose.
Ans. 1
